Test: yeast display, Sf9 membrane polyspecificity reagent, FACS + sequencing; frameworks hold sequencing errors

PRIMARY_SEQUENCE: QVQLVESGGGLVQAGGSLRLSCAASGRIFGINSMGWYRQAPGKERELVAAITGGGSTYADSVKGRFTISRDNAKNTVYLQMNSLKPEDTAVYYCAAVSPRRYRYDYWGQGTQVTVSS
polyreactivity (PSR sort gate): low polyreactivity
--
PRIMARY_SEQUENCE: QVQLVESGGGLVQAGGSLRLSCAASGFTLLIYAKGWYRQAPGKERELVAAITWRGSGTYYADSVKGRFTISRDIAKNSVYLQMNSLKPEDTAVYYCAARTARRTYDYWGQGTQVTVSS
polyreactivity (PSR sort gate): low polyreactivity
--
PRIMARY_SEQUENCE: QVQLQESGGGLVQAGGSLRPSCAASGSISDGVPMGWYRQAPGEQRELVATTVLGATTNYADSVKGRFTISRGNAKNTVYLLMNSLKPEETAVYYCAARLRYDKGFSYWGQGTQVTVSS
polyreactivity (PSR sort gate): low polyreactivity
--
PRIMARY_SEQUENCE: QVQLVESGGGLVQAGGSLRLSCAASGFIFYSNAMGWYRQAPGKERELVAAISRSGGSTYYADSVKGRFTISRDNAKNTVYLQMNSLKPEDTAVYYCNADYVYRRYGYWGQGSQVTVSS
polyreactivity (PSR sort gate): high polyreactivity
--
PRIMARY_SEQUENCE: QVQLVESVGGLVQAGGSLRLSCAASGRIFPVYAMGLYRQAPGKERELVAAISKRDGSTSYADSVKGRFTISRDNAKNTVYIQMNSLKPEDTAVYYCNARNHVQVLFRRDYWGQGTQVTVSS
polyreactivity (PSR sort gate): low polyreactivity
--
PRIMARY_SEQUENCE: QVQLVETGGGLVQAGGSLRLSCAPSGRTFGPYAMGWYRQAPGKERELVAAIRVRGASTYYADSVKVRFTISRDNEKNTVYLQMNSLKPEDTEVYYCAATLSYYVGVRYDYWGQGTQVTVSS
polyreactivity (PSR sort gate): high polyreactivity
--
PRIMARY_SEQUENCE: QVQLVESGGGLVQAGGSLRLSSAASGRIFRGYTMGCSRQAPGKDRELVAAISRSGTRTYYADSVKGRFPISRDNAKNTGYLQMNSLTPEDTAVYDCAVDSTTAGTGMGYWGQGTQVTVSS
polyreactivity (PSR sort gate): high polyreactivity
--
PRIMARY_SEQUENCE: QVQLVESGGGLVQAGGSLRLSCAASGGTFLSNAMGWYRQAPGKERELVASISWGGGSTTYADSVKGRFTISRDNAKNTVYLQMNSLKPEDTAVYYCNALDGPGYYVDYDYWGQGTQVTVSS
polyreactivity (PSR sort gate): low polyreactivity
--
PRIMARY_SEQUENCE: QVQLVESCGGLVQAGGSLRLSCAASGSTFTVNAMGGYRQAPGKERELVAAINWSGGSTYYADSVKGRFTISRDNAKNTVYFQMNSLKPEDTAVYYCNKDREPYGYWSFDYWGQGSQVTVSS
polyreactivity (PSR sort gate): low polyreactivity
--
PRIMARY_SEQUENCE: QVQLEESGGGVVQAGGSLRLSCAASGRTFRWYAMGWYRQAPGKERELVATINSGGTTNYADSVKGRFTISRDNAKNTVYLQMNSLKPEDTAVYYCAATNRGPGHDYWGQGTQVTVSS
polyreactivity (PSR sort gate): low polyreactivity
--
PRIMARY_SEQUENCE: QVQLVESGGGLVQAGGSLRLSCAASGSTFYYNAMGWYRQAPGKERELVAAIRTSGGRTYYADSVKGRFTISRDNAKNTVYLQMNSLKPEDTAVYYCAADGTAVHYTYDYWGQGTQVTVSS
polyreactivity (PSR sort gate): low polyreactivity

====

Experiment: yeast display, Sf9 membrane polyspecificity reagent, FACS + sequencing; frameworks hold sequencing errors
MEASURE: polyreactivity (PSR sort gate)

PRIMARY_SEQUENCE: QVQLVESGGGLVQAGRSLRLSCAASGSIFYKYARGWYRQAPGKERELVAAISRSRGSTYYADSVKGRFTISRDNAKNTVYLQMNSLKPEDTAVYYCNAYYRYSFSELDKYGYWGQGTQVTVSS
MEASURE: polyreactivity (PSR sort gate)
RESULT: high polyreactivity

PRIMARY_SEQUENCE: QVQLVESGGGLLQAGGSLRLSCAASGRIFSFNTMGWYRQAPGKERELVAAISRGGSTYYADSVKGRFTNSRDNAKNTVYLQMNSMKPEDTAVYYCNALLPPGSRKYNYWGQGSQVTVSS
MEASURE: polyreactivity (PSR sort gate)
RESULT: high polyreactivity

PRIMARY_SEQUENCE: QVHLVESGGGLVLAGGSLRLSCAASVRIYTRNVMGWYRQAPGKERELVAAISTSGGSTFYADSVKGRFTISRDNAKNTVYLQMNSLKPEDTAVYYCAKRRYGKLEYWGQGTQVTVSS
MEASURE: polyreactivity (PSR sort gate)
RESULT: high polyreactivity

PRIMARY_SEQUENCE: QVHLVESGGGLVQAGGSLRLSCADYGSNLYYKAMGWYRQAPGKEMQVVAAISTGGRTNYADSVKGRFTISRDNAKNTVYLQMNSLKPEDSAVYYCAAETTTEITDTDYDYWGQGTQVTVSS
MEASURE: polyreactivity (PSR sort gate)
RESULT: low polyreactivity

PRIMARY_SEQUENCE: QVQQQESGGGLVQEGGSLRLSCAASGYIFDYYYMGWYRQAPGKEREFVATISEGSTTNYADSVKGRFTTSRDNSKNTVYLQMNSLKPEDTAVYYCATDTVYGNDYWGQGTHVTVSS
MEASURE: polyreactivity (PSR sort gate)
RESULT: low polyreactivity

PRIMARY_SEQUENCE: QVQLVESGGGLDQAGGSLRLSCAASGSILVSNDMGWYRQAPGKERELVAAISWSGGSTYYADSVKGRFTISRDNAKNTVYLQMNSLKPEDTAVYYCAAGFGFLFARQELDFDYWGQGTQVTVSS
MEASURE: polyreactivity (PSR sort gate)
RESULT: low polyreactivity

PRIMARY_SEQUENCE: QVQLVESGGGLVQAGGSLRLSCAASGRTFGYNVMGWYRQAPGKERELVARITSGGNTKYADSVKGRFTISRDNAKNTVYLQMNSLKPEDTAVYYCAKRPLGVRGIYFQYDYWGQGTQVTVSS
MEASURE: polyreactivity (PSR sort gate)
RESULT: high polyreactivity

PRIMARY_SEQUENCE: QVQLVESGGGLVQAGGSLRLSCAASGLTFKYYAMGWYRQAPGKERELVAAITSTGGRTYYADSVKGRFTISRDNAKNTVYLQMNSLKPEDTAVYYCAAYYVGSSKYDSWGQGTQVTVSS
MEASURE: polyreactivity (PSR sort gate)
RESULT: low polyreactivity

PRIMARY_SEQUENCE: QVQLVESGGGLVQAGGSLRLSCASSGLIFGRNVMGWYRQAPGKERELVAAISWSGGRTYYADSVKGRFTISRDNAKNTVYLQMNSLKPEDTAVYYCAADDGPGFDYWGQGTQVTVSS
MEASURE: polyreactivity (PSR sort gate)
RESULT: high polyreactivity

PRIMARY_SEQUENCE: QVQLVESGGGLVQAGGSLRLSCAASGITIRYYTMGWYRQAPGKERELVASISWSGTSTHYADSVKGRFTISRDNAKNTVYLQMNSLKPEDTAVYYCAATITSLAGGYRNGYTSYYWGQGTQVTVSS
MEASURE: polyreactivity (PSR sort gate)
RESULT: high polyreactivity

PRIMARY_SEQUENCE: QVQLVESGGGLVQAGGSLRISCAASGSNFTQYDMGWYRQAPGKERELVAAITSGGSTDYADSVKGRFTISRDNAKNTVYLQMNSLKPEDTAVYYCNAEAYPYWYRGASREYDYWGQGTQVTVSS
MEASURE: polyreactivity (PSR sort gate)
RESULT: low polyreactivity

====

Assay: yeast display, Sf9 membrane polyspecificity reagent, FACS + sequencing; frameworks hold sequencing errors

PRIMARY_SEQUENCE: QVQLVESGAGLVQAGGSLRLSCAASGFTFRYYAMGWYRQAPGKERELVATISASSGSTYYADSVKGRFTISRDNAKNTVYLQMNSLKPEDTAVYYGAKEPLASGWGYDYWGQGTQVTVSS
polyreactivity (PSR sort gate): high polyreactivity
--
PRIMARY_SEQUENCE: QVQLVESGGGLVQAGGSLRLSCAASGYIFAAYTMGWYRQAPGKEREFVAAITRSGGSTYYADSVKWRFTISRDNAKNTVYLQMNSLKPEDTAVYYCAARRWRYFPDYDYWGQGTQVTVSS
polyreactivity (PSR sort gate): high polyreactivity
--
PRIMARY_SEQUENCE: QVQLVASGGGLVQTGGSLRLSCAASGSTCVWYTIGWYRQAPGKERELVADISRSGGSTYYADSVKGRFTISRDNAKKTIYLQKNSLKAEDTAVYYCARYGYVYNTREPPKVVTFDYSGQGTQVTVSS
polyreactivity (PSR sort gate): high polyreactivity
--
PRIMARY_SEQUENCE: QVQLVESGGGLVQAGGSLRLSCASSGLIFSIYAMGWYRQAPGKERELVAAIRWSGGSTYYADSVKGRFTISRDNAKNTVYLQMNSLKPEDTAVYYCNADITVYVRIYQYNYCGQGTQVTVSS
polyreactivity (PSR sort gate): low polyreactivity
--
PRIMARY_SEQUENCE: KVQLVESGAGLVQAGGSLRLSCAASVSNFTSHAMGWSRQAPGKEREFVAAISVGGGITYYADSVKGRFTISRDHEKNTVYLQMNSLNPEDTAVYYCDADGEYPHSDDFEYWGQVTQVTVSS
polyreactivity (PSR sort gate): low polyreactivity
--
PRIMARY_SEQUENCE: QVQLVESWGGLVQAGGSLRLSCAASGRTFYSYVMGWYRKAPGKEREMVAAITSGGSTYYADSVKGRFTISRDNAKNTVYLQMNSLKPEDTAVYYCAADGDYASYDTFWYWAPEYDYWGQGTQVTVSS
polyreactivity (PSR sort gate): low polyreactivity
--
PRIMARY_SEQUENCE: QVQLVESGGGLVQAGGSLRLSCAASGSIFSPYAMGWYRQAPGKERELVAGISKSAGTTFYADSVKGRFTISRDNAKNTVYLQMNSLKPEDTAVYYCAADYYYPAWYLSDYWGQGTQVTVSS
polyreactivity (PSR sort gate): low polyreactivity
--
PRIMARY_SEQUENCE: QVQFVESGGGLVQAGGSLRLSCAASGFTFVWYDMGGYRQAPGKERELVAAISSGGSTYYADSVKGRFTISRDNAKNTVYLQMNSLKPEDTAVYYCAVYTGYYNYIYQYDYWGQGTQVTVSS
polyreactivity (PSR sort gate): low polyreactivity
--
PRIMARY_SEQUENCE: QVQLVESGGGLVQAGGRLRLSCTASGRPLYNYTMGWYRQAPGKERELVATINFSGGSTYYADSVKGRFTISRDNAKNTVYLQMNSLKQEDTAVYYCTARGYHYAYKGAYLGDDYWGQGTQVTVSS
polyreactivity (PSR sort gate): low polyreactivity
--
PRIMARY_SEQUENCE: QVQIVESGGGLVQAGGSLRLSCASYGFTFWGYTMGWYRQAPGKERELVAAITSNGSTYYADSVKGRFTISRDNAQNTVYLQMNSLKPEDTAVYYCAATRGSSEYFYWGQGSQVTVSS
polyreactivity (PSR sort gate): low polyreactivity
--
PRIMARY_SEQUENCE: QVQLVESGGGLVQEGGSLRLSCAATGSTFDANAMGWYRQAPGKERELVATISDGGSTNYADSVKGRFTISRDNAKNTVYLQMNSLKPEDTAVYYCAAVKLFLGLGYDYWGQGTQVTVSS
polyreactivity (PSR sort gate): low polyreactivity
--
PRIMARY_SEQUENCE: QVQLVESGGGLVQAGGSLRLSCAASGSIFWRYAMGWYRQAPGKERELVAAISSSGSTYYADSVKGRFTISRDNAKNTVYLQMNSLKPEDTAVYYCAKRASALLRHSYDYWGQGTQVSVSS
polyreactivity (PSR sort gate): low polyreactivity
--
PRIMARY_SEQUENCE: LVQLVESGGRLVQAGGSLRLTCAATGSIFDGNAKGWYRQAPGKDRELVADISRGGSTYYADSVKGRFTISSDNAKNTVYFQLNSLKPEDTAVYDCTVEFFFWPYEYGYWGQGTQVTVSS
polyreactivity (PSR sort gate): low polyreactivity
--
PRIMARY_SEQUENCE: QVQRVDSGGGLVQAGGSLRLTCAASGFTFSQYVMGWYRQAPGKARELVAAISYRGGSTYYADSVKGRFTISRDNAKNTVYVQMNSLKPEDTAVYYCAAVAYSWHNRYDYWGQGTQVTVSS
polyreactivity (PSR sort gate): high polyreactivity
--
PRIMARY_SEQUENCE: QVQLVESGGGLVQAGCSLRLSCAASGITVYDYDMGWYRQAPGKERELVAAITWNGGSTYYADSVKGRFTISRDNAKNTVYLQMNSLKPEDTAVYYCAAESYYIYDYWGQGTQVTVSS
polyreactivity (PSR sort gate): high polyreactivity
--
PRIMARY_SEQUENCE: QVQLVESGGGLVQAGGSLRLSCAASGSTLIANAMGWYRQAPGKERELVAGITYRGGDITTYADSVKGSFTNSSDNANNTVYLQINTLKPEDTAVYYCAAPVVWPTWARGGYWGQGTQVTVSS
polyreactivity (PSR sort gate): low polyreactivity
--
PRIMARY_SEQUENCE: QVQLVESGGGLVQAGGSLRLSSAASGSISDSYAMGWYRQAPGKERELVAAITSGDSTYYADSVKGRFTISRDNAKNTVYLQMNSLKPEDTAVYFCAKRVSRVRGYVFTDWSEYDYWGQGTQVTVSS
polyreactivity (PSR sort gate): low polyreactivity
--
PRIMARY_SEQUENCE: QVQLVESGGGLVQAGGSLRLSCAASGRTFKRYAMGWYRQAPGKERELVAAITFSGGSTYYADSVKGRFTISRDNAKNTVYLQMNSLKPADTAVYYCAAVGEHYPWDYYWGQGTQVTVSS
polyreactivity (PSR sort gate): high polyreactivity
--
PRIMARY_SEQUENCE: QGQLVESGGGLVQAGGSLRLSCAASGRIFPYAMGWYRQAPGKERELVAAISRIGGITYYADSVKGRFTISRDNAKNTVYLQMNSLKPEDTAVYYCNARFHPYRWTFDYWGQGTQVTVSS
polyreactivity (PSR sort gate): high polyreactivity
--
PRIMARY_SEQUENCE: QVQLVESGGGLVQAGGSLRLSCAASGRTFRRYAMGWYRQAPGKERELVAAISSSTGRTYYADSVKGRFTISRDTAKNTVYLQMNSLKPEDTAVYYCNAVHRYERDYWGQGTQVTVSS
polyreactivity (PSR sort gate): high polyreactivity
--
PRIMARY_SEQUENCE: QVQLVESGGGLVQAGGSLRISCAASGRTFDHYAMGWYRPAPGKERELVAAISFSGGSTYYADSVKGRLTISRDNAKNTVYLQMNRLKPEDTAVYYCAADYAYWLSGYDYWGQGTQVTVSS
polyreactivity (PSR sort gate): low polyreactivity
